target: Muscarinic acetylcholine receptor M4 (Homo sapiens, UniProt P08173); assay: Agonist activity at human Muscarinic acetylcholine receptor M4 expressed in HEK cells co-expressing Glosensor construct assessed as decrease in isoproterenol-induced cAMP accumulation incubated for 7 mins in presence of isoproterenol by Glosensor cAMP reagent/plate reader based luminescence assay; assay type: functional, cell-based
Sequence (P08173 whole entry): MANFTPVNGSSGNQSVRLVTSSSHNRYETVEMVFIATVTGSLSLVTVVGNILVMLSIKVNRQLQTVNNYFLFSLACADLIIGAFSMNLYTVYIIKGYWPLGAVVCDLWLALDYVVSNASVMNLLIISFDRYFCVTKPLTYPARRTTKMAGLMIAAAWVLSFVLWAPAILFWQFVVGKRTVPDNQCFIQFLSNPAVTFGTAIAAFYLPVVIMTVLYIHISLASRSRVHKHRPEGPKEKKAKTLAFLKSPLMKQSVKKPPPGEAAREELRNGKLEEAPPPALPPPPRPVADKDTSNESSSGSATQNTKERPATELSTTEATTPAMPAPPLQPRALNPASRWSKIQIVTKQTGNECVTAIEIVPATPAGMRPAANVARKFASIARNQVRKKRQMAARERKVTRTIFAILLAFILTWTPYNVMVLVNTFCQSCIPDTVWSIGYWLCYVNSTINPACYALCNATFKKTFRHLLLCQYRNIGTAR
pEC50: −log10 of the molar value.

compound | qualifying-sign | pEC50
COc1cccnc1C1CCN(C2CCCN(c3ccncc3)CC2)CC1 (stereo not drawn) | < | 5.00
COc1cccnc1C1CCN(CC2CCN(c3cnccn3)CC2)CC1 | = | 6.53
CCOC(=O)N1CCC2(CC(N3CCC(c4ncccc4OC)CC3)C2)C1 (stereo not drawn) | = | 8.05
COc1cccnc1C1CCN(C2CC3(CCN(c4cnccn4)C3)C2)CC1 (stereo not drawn) | = | 6.64
COc1cccnc1C1CCN(C2CCCN(c3nccnc3C)CC2)CC1 (stereo not drawn) | = | 5.45
COc1cccnc1C1CCN(C2CCCN(c3cnsn3)CC2)CC1 (stereo not drawn) | = | 7.70
COc1cccnc1C1CCN(C2CCCN(c3cncc(C)n3)CC2)CC1 (stereo not drawn) | = | 5.01
COc1cccnc1C1CCN(C2CCCN(C(=O)OCC(C)C)CC2)CC1 (stereo not drawn) | < | 5.00
